Data origin: ChEMBL document CHEMBL3877309

# ASSAY_NOTES: Cytotoxicity against mouse Sarcoma 180 cells assessed as reduction in cell viability after 72 hrs by MTT assay
# Format: functional, cell-based
# RECORDED_CONDITIONS: Sarcoma-180, 72 h
RESULT_TYPE: IC50 (µM)
Please give a number only; it is taken to be in µM.

CNC(=O)NCCCNC(=O)c1c2cc[n+](C)cc2c(C)c2c1[nH]c1ccccc12; 34
Cc1c2cnccc2c(C(=O)NCCN)c2[nH]c3ccccc3c12; 2.2
Cc1c2cc[n+](CCN)cc2c(C)c2c1[nH]c1ccccc12; 3.2

# context switch: different molecule, same IC50
Quick one: give measured IC50 for `CNC(=O)NCCCCCNC(=O)c1c2cc[n+](C)cc2c(C)c2c1[nH]c1ccccc12`
80
